Where do these numbers come from? They come from patent US20250295799A1.

# measurement-target: T1, recombinant cynomolgus GPC3 (glypican-3) (cynomolgus monkey, UniProt A0A2K5VK50 24-558)
# T1 construct: also called cynoGPC3
# test: SPR; Kd on human GPC3 divided by Kd on cynomolgus GPC3
Measured Kd Fold difference (hu/cyno) by item

binder	Kd Fold difference (hu/cyno), fold
v40212, H18L6_LC_G34A mAb (antibody, human IgG1, kappa, V domains shown, no number given for this variant) VH: QVQLVQSGAEVKKPGSSVKVSCKASGYTFTDYEMHWVKQAPGHGLEWIGAIDPETGDTAYNQKFKGKATLTADTSTSTAYMELSSLRSEDTAVYYCTRYFSFAYWGQGTLVTVSS VL: EIVLTQSPATLSLSPGERATISCRSSQSLRHSNANTYLQWYQQKPGQAPRLLIYKVSNRFSGVPARFSGSGSGTDFTLTISSLEPEDFAVYFCYQSKHVPYTFGGGTKVEIKR	1.61
v40214, H18L6_LC_N33T mAb (antibody, human IgG1, kappa, V domains shown, no number given for this variant) VH: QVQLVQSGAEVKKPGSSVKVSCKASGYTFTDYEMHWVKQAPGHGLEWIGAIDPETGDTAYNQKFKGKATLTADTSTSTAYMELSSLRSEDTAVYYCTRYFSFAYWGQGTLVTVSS VL: EIVLTQSPATLSLSPGERATISCRSSQSLRHSTGNTYLQWYQQKPGQAPRLLIYKVSNRFSGVPARFSGSGSGTDFTLTISSLEPEDFAVYFCYQSKHVPYTFGGGTKVEIKR	1.21
v40204, H18L6_LC_G34E mAb (antibody, human IgG1, kappa, V domains shown, no number given for this variant) VH: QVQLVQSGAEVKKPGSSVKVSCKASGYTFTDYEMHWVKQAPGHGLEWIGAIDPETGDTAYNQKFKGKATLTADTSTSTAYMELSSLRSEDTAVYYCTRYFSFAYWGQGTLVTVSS VL: EIVLTQSPATLSLSPGERATISCRSSQSLRHSNENTYLQWYQQKPGQAPRLLIYKVSNRFSGVPARFSGSGSGTDFTLTISSLEPEDFAVYFCYQSKHVPYTFGGGTKVEIKR	1.19
v40220, H18L6_LC_N33Q mAb (antibody, human IgG1, kappa, V domains shown, no number given for this variant) VH: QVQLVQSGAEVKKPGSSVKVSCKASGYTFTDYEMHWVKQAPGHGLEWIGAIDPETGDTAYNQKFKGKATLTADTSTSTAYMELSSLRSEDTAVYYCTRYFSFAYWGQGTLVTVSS VL: EIVLTQSPATLSLSPGERATISCRSSQSLRHSQGNTYLQWYQQKPGQAPRLLIYKVSNRFSGVPARFSGSGSGTDFTLTISSLEPEDFAVYFCYQSKHVPYTFGGGTKVEIKR	1.12
v40217, H18L6_LC_N33K mAb (antibody, human IgG1, kappa, V domains shown, no number given for this variant) VH: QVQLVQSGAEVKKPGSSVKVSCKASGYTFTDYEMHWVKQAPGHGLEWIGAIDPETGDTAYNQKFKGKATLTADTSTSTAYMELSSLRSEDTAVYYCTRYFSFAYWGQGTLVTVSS VL: EIVLTQSPATLSLSPGERATISCRSSQSLRHSKGNTYLQWYQQKPGQAPRLLIYKVSNRFSGVPARFSGSGSGTDFTLTISSLEPEDFAVYFCYQSKHVPYTFGGGTKVEIKR	1.3
